What Total Cleavage was measured for each of the following?
Target Or Test System: Gastricsin (Homo sapiens)
Sequence (P20142 60-388): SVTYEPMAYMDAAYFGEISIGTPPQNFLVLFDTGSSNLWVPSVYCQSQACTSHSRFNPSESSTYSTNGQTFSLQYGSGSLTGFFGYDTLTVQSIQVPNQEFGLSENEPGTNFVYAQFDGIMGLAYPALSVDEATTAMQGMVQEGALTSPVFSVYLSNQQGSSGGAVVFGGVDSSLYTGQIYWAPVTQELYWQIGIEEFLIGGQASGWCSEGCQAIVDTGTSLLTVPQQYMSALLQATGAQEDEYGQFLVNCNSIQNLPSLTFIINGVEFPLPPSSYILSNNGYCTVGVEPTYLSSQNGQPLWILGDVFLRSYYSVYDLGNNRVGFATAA
Test Method Notes: Cleavage of peptide substrates by gastricsin (MSP-MS assay)
Type: biochemical
Parameters: purchased R&D Systems 6186-AS
Particulars: Target Protease Gastricsin
Where no end group is shown, it is not given here.

>>> readout_value("VGKWSYRM [VGKW|SYRM, gastricsin peptide substrate]")
22
>>> readout_value("NMKWTRVL [NMKW|TRVL, gastricsin peptide substrate]")
21
>>> readout_value("DEGWALQH (also: fluorophore and quencher) [DEGW|ALQH]")
30

Below: the item to evaluate.
**Q:** Recorded Total Cleavage for PWTWYGVK [PWTW|YGVK, gastricsin peptide substrate] , please?
**A:** 64
